- ASSAY DETAILS: Critical wavelength (λcrit), approximate in-house measurement
- Format: physicochemical
- SETUP CONDITIONS: Table 13B
- Excerpt: As the precise test for critical wavelength was unable to be replicated exactly by the inventors due to the need for specialist equipment and a specific calibration of the spectrophotometer, these values are only approximate to a degree. […] This represents a highly useful result and so, compounds based around this benzoyl substitution pattern shown, are especially preferred.
QUANTITY: λcrit

molecule=CC1(C)CCN(c2ccc(N3C=C(C(=O)CC4CCCCC4)C(C)(C)CC3)cc2)C=C1C(=O)CC1CCCCC1 quantity=λcrit result="379 nm"
molecule=CC1(C)CCN(C(C)(C)C)C=C1C(=O)c1ccc(N2CCN(c3ccc(C(=O)C4=CN(C(C)(C)C)CCC4(C)C)cc3)CC2)cc1 quantity=λcrit result="356 nm"
molecule=CCCCCCCCCCCCCCCCCC(=O)C1=CN(c2ccc(N3C=C(C(=O)CCCCCCCCCCCCCCCCC)C(C)(C)CC3)cc2)CCC1(C)C quantity=λcrit result="379 nm"
molecule=CC1(C)CCN(c2ccc(C(C)(C)C)cc2)C=C1C(=O)N(Cc1ccc(CN(C(=O)C2=CN(c3ccc(C(C)(C)C)cc3)CCC2(C)C)c2ccccc2)cc1)c1ccccc1 quantity=λcrit result="352 nm"
molecule=CCOC(=O)C(=O)C1=CN(c2ccccc2)CCC1(C)C quantity=λcrit result="362 nm"
molecule="CCCCC(CC)CN(c1ccc(C(=O)C2=CN(C(C)(C)C)CCC2(C)C)cc1)c1ccc(C(=O)C2=CN(C(C)(C)C)CCC2(C)C)cc1 (stereo not shown)" quantity=λcrit result="369 nm"
molecule=CC(C)(C)CC(C)(C)N1C=C(C(=O)/C=C/c2ccc(/C=C/C(=O)C3=CN(C(C)(C)CC(C)(C)C)CCC3(C)C)cc2)C(C)(C)CC1 quantity=λcrit result="390 nm"

====

- ASSAY DETAILS: UV absorption properties (λmax, molar extinction coefficient ε, efficiency E 1%, 1 cm)
- Type: physicochemical
- SETUP CONDITIONS: Table 13B; values in order of the λmax values
Label 1.0 when E (1%, 1 cm) is at or above 900; anything below gets 0.0.

compound=CC1(C)CCN(C(C)(C)C)C=C1C(=O)c1ccccc1 class_assignment=1.0
compound=CC1(C)CCN(C(C)(C)C)C=C1C(=O)/C=C/c1ccc(C(=O)C2=CN(C(C)(C)C)CCC2(C)C)cc1 class_assignment=0.0
compound=CCC(=O)C1=CN(c2ccc(-c3ccc(N4C=C(C(=O)CC)C(C)(C)CC4)c(C)c3)cc2C)CCC1(C)C class_assignment=1.0
compound=CC1(C)CCN(C(C)(C)C)C=C1C(=O)c1ccccn1 class_assignment=0.0
compound="CCCCC(CC)CN(c1ccc(C(=O)C2=CN(C(C)(C)C)CCC2(C)C)cc1)c1ccc(C(=O)C2=CN(C(C)(C)C)CCC2(C)C)cc1 (stereo not drawn)" class_assignment=0.0
compound=CC1(C)CCN(c2ccc(N3C=C(C(=O)CC4CCCCC4)C(C)(C)CC3)cc2)C=C1C(=O)CC1CCCCC1 class_assignment=1.0
compound="CC(C)=CCCC(C)CC(=O)C1=CN(c2ccc(N3C=C(C(=O)CC(C)CCC=C(C)C)C(C)(C)CC3)cc2)CCC1(C)C (stereo not drawn) [drawing 212]" class_assignment=0.0
compound=COC(=O)c1cc(Br)ccc1/C=C/C(=O)C1=CN(C(C)(C)C)CCC1(C)C class_assignment=0.0
compound=CCOC(=O)C(=O)C1=CN(c2ccccc2)CCC1(C)C class_assignment=1.0
compound="CCCCC(CC)CNc1ccc(C(=O)C2=CN(C(C)(C)C)CCC2(C)C)cc1 (stereo not drawn)" class_assignment=0.0
compound=CCOC(=O)C(=O)C1=CN(C(C)(C)C)CCC1(C)C class_assignment=1.0
compound=CC1(C)CCN(C(C)(C)C)C=C1C(=O)c1ccc(Nc2ccccc2)cc1 class_assignment=0.0
compound=C=CC(=O)C1=CN(c2ccc(C)cc2)CCC1(C)C class_assignment=1.0
compound=CC(C)(C)CC(C)(C)N1C=C(C(=O)/C=C/c2ccc(/C=C/C(=O)Cl)cc2)C(C)(C)CC1 class_assignment=0.0
compound=CC1(C)CCN(C(C)(C)C)C=C1C(=O)N(CCCCN(C(=O)C1=CN(C(C)(C)C)CCC1(C)C)c1ccccc1)c1ccccc1 class_assignment=0.0
compound=CCOC(=O)c1cc(/C=C/C(=O)C2=CN(C(C)(C)C)CCC2(C)C)c(C(=O)OCC)cc1/C=C/C(=O)C1=CN(C(C)(C)C)CCC1(C)C class_assignment=0.0
compound=Cc1cc(C)c(C(=O)C2=CN(C(C)(C)C)CCC2(C)C)c(C)c1 class_assignment=1.0
compound=CC1(C)CCN(c2ccc(N3C=C(C(=O)CCC(F)(F)F)C(C)(C)CC3)cc2)C=C1C(=O)CCC(F)(F)F class_assignment=1.0

====

- ASSAY DETAILS: UV absorption properties (λmax, molar extinction coefficient ε, efficiency E 1%, 1 cm)
- Assay type: physicochemical
- SETUP CONDITIONS: Table 13B; values in order of the λmax values; in M-1 cm-1
QUANTITY: ε

molecule=CCOC(=O)C(=O)C1=CN(C(C)(C)C)CCC1(C)C quantitative_result=26668
molecule=CC1(C)CCN(c2ccc(N3C=C(C(=O)CC4CCCCC4)C(C)(C)CC3)cc2)C=C1C(=O)CC1CCCCC1 quantitative_result=56032
molecule=CCOC(=O)C(=O)C1=CN(c2ccccc2)CCC1(C)C quantitative_result=34743
molecule=Cc1cc(C)c(C(=O)C2=CN(C(C)(C)C)CCC2(C)C)c(C)c1 quantitative_result=33953
molecule=CCC(=O)C1=CN(c2ccc(-c3ccc(N4C=C(C(=O)CC)C(C)(C)CC4)c(C)c3)cc2C)CCC1(C)C quantitative_result=63191
molecule=CC1(C)CCN(C(C)(C)C)C=C1C(=O)c1c(F)c(F)c(F)c(F)c1F quantitative_result=34340
molecule=CC(C)(C)CC(C)(C)N1C=C(C(=O)/C=C/c2ccc(/C=C/C(=O)Cl)cc2)C(C)(C)CC1 quantitative_result=19194
molecule=CCCCCCCCCC(=O)C1=CN(c2ccc(N3C=C(C(=O)CCCCCCCCC)C(C)(C)CC3)cc2)CCC1(C)C quantitative_result=54278
molecule="CCCCC(CC)COC(=O)CCC(=O)C1=CN(c2ccc(N3C=C(C(=O)CCC(=O)OCC(CC)CCCC)C(C)(C)CC3)cc2)CCC1(C)C (stereo not drawn)" quantitative_result=45301
molecule=CC1(C)CCN(C(C)(C)C)C=C1C(=O)N(CCCCN(C(=O)C1=CN(C(C)(C)C)CCC1(C)C)c1ccccc1)c1ccccc1 quantitative_result=22166
molecule=CC1(C)CCN(C(C)(C)C)C=C1C(=O)c1ccc(F)cc1 quantitative_result=20919
molecule=CC1(C)CCN(C(C)(C)C)C=C1C(=O)c1ccccn1 quantitative_result=17272
molecule=CC1(C)CCN(C(C)(C)C)C=C1C(=O)/C=C/c1cccc(/C=C/C(=O)C2=CN(C(C)(C)C)CCC2(C)C)c1 quantitative_result=20388
molecule=CC(C)(C)CC(C)(C)N1C=C(C(=O)/C=C/c2ccc(/C=C/C(=O)C3=CN(C(C)(C)CC(C)(C)C)CCC3(C)C)cc2)C(C)(C)CC1 quantitative_result=31937
molecule=Cc1cc(/C=C/C(=O)C2=CN(C(C)(C)C)CCC2(C)C)c(C)cc1Br quantitative_result=21473
molecule=CC1(C)CCN(C(C)(C)C)C=C1C(=O)/C=C/c1ccc(/C=C/C(=O)C2=CN(C(C)(C)C)CCC2(C)C)cc1 quantitative_result=36404
molecule=Cc1cc(-c2ccc(N3C=C(C(=O)C(F)(F)F)C(C)(C)CC3)c(C)c2)ccc1N1C=C(C(=O)C(F)(F)F)C(C)(C)CC1 quantitative_result=71432
molecule=CC1(C)CCN(C(C)(C)C)C=C1C(=O)N(Cc1ccc(CN(C(=O)C2=CN(C(C)(C)C)CCC2(C)C)c2ccccc2)cc1)c1ccccc1 quantitative_result=26421
molecule=CCCOC(=O)CCC(=O)C1=CN(c2ccc(N3C=C(C(=O)CCC(=O)OCCC)C(C)(C)CC3)cc2)CCC1(C)C quantitative_result=47560
molecule=CC1(C)CCN(C(C)(C)C)C=C1C(=O)c1ccc(C(F)(F)F)cc1 quantitative_result=26531
molecule=Cc1ccc(NC(=O)C2=CN(C(C)(C)CC(C)(C)C)CCC2(C)C)cc1NC(=O)C1=CN(C(C)(C)CC(C)(C)C)CCC1(C)C quantitative_result=61479
molecule=CC1(C)CCN(C(C)(C)C)C=C1C(=O)c1ccc(N2CCN(c3ccc(C(=O)C4=CN(C(C)(C)C)CCC4(C)C)cc3)CC2)cc1 quantitative_result=51851
molecule=CC1(C)CCN(C(C)(C)C)C=C1C(=O)c1c(F)cccc1F quantitative_result=35700
molecule=COC(=O)c1cc(Br)ccc1/C=C/C(=O)C1=CN(C(C)(C)C)CCC1(C)C quantitative_result=13489
molecule=Cc1ccc(N2C=C(C(=O)N(CCCCN(C(=O)C3=CN(c4ccc(C)cc4)CCC3(C)C)c3ccccc3)c3ccccc3)C(C)(C)CC2)cc1 quantitative_result=42215
molecule=CC1(C)CCN(c2ccc(C(C)(C)C)cc2)C=C1C(=O)N(Cc1ccc(CN(C(=O)C2=CN(c3ccc(C(C)(C)C)cc3)CCC2(C)C)c2ccccc2)cc1)c1ccccc1 quantitative_result=46937
molecule=CC1(C)CCN(C(C)(C)C)C=C1C(=O)c1ccc(Nc2ccccc2)cc1 quantitative_result=26695
molecule="CCCCC(CC)CNc1ccc(C(=O)C2=CN(C(C)(C)C)CCC2(C)C)cc1 (stereo not drawn)" quantitative_result=21936
molecule=Cc1cc(/C=C/C(=O)C2=CN(C(C)(C)C)CCC2(C)C)c(C)cc1/C=C/C(=O)C1=CN(C(C)(C)C)CCC1(C)C quantitative_result=32159
molecule=Cc1cc(-c2ccc(N3C=C(C(=O)C(F)(F)F)C(C)(C)CC3)c(C)c2)ccc1N1C=CC(C)(C)C(C(=O)C(F)(F)F)=C1 quantitative_result=50670
molecule="CC(C)=CCCC(C)CC(=O)C1=CN(c2ccc(N3C=C(C(=O)CC(C)CCC=C(C)C)C(C)(C)CC3)cc2)CCC1(C)C (stereo not drawn) [drawing 212]" quantitative_result=41400
molecule="CCCCC(CC)COC(=O)c1cc(/C=C/C(=O)C2=CN(C(C)(C)C)CCC2(C)C)ccc1/C=C/C(=O)C1=CN(C(C)(C)C)CCC1(C)C (stereo not drawn)" quantitative_result=30963
molecule=C=CC(=O)C1=CN(c2ccc(C)cc2)CCC1(C)C quantitative_result=26657
